Each item that follows carries a reported aPTT mean clotting time.
Tested on: citrated pooled rat plasma
METHOD: Activated partial thromboplastin time (aPTT) assay
ASSAY CONDITIONS: citrated pooled rat plasma; highest concentration tested; control 22 s
Report as a plain number; the unit s is understood.

Answered cases to consult:
MOLECULE	aPTT mean clotting time / s
CC(=O)N[C@H]1[C@@H](OCCN)O[C@H](COS(=O)(=O)O)[C@@H](O)[C@@H]1O [M1, GlcNAc6S]	22
NCCCCCOC1OC(COS(=O)(=O)O)C(OC2OC(C(=O)NNS(=O)(=O)O)C(OS(=O)(=O)O)C(O)C2OS(=O)(=O)O)C(O)C1NS(=O)(=O)O (stereo not drawn) [D3, GlcANS6S-GlcNS6S]	25.3

We next turn to a different molecule, shown below.
Task: Need aPTT mean clotting time, item CC(=O)N[C@H]1[C@@H](OCCN)O[C@H](COS(=O)(=O)O)[C@@H](O[C@@H]2O[C@@H](C(=O)O)[C@@H](OS(=O)(=O)O)[C@H](O)[C@H]2OS(=O)(=O)O)[C@@H]1O [D2, IdoA2S4S-GlcNAc6S]
Result: 24

---

Tested on: citrated pooled rat plasma
METHOD: Activated partial thromboplastin time (aPTT) assay
ASSAY CONDITIONS: citrated pooled rat plasma; highest concentration tested; control 22 s
RESULT TYPE: aPTT mean clotting time (s)
Report as a plain number; the unit s is understood.

MOLECULE	TARGET ENTITY	aPTT mean clotting time (s)
CO[C@H]1O[C@H](COS(=O)(=O)O)[C@@H](O[C@@H]2O[C@@H](C(=O)O)[C@@H](O[C@H]3O[C@H](COS(=O)(=O)O)[C@@H](O[C@@H]4O[C@H](C(=O)O)[C@@H](O[C@H]5O[C@H](COS(=O)(=O)O)[C@@H](O)[C@H](O)[C@H]5NS(=O)(=O)O)[C@H](O)[C@H]4O)[C@H](OS(=O)(=O)O)[C@H]3NS(=O)(=O)O)[C@H](O)[C@H]2OS(=O)(=O)O)[C@H](O)[C@H]1NS(=O)(=O)O [Fondaparinux, reference compound]	citrated pooled rat plasma	37

Task: What measured aPTT mean clotting time is associated with CC(=O)N[C@H]1[C@@H](OCCN)O[C@H](CO)[C@@H](O[C@@H]2O[C@@H](C(=O)O)[C@@H](OS(=O)(=O)O)[C@H](O)[C@H]2OS(=O)(=O)O)[C@@H]1O [D1, IdoA2S4S-GlcNAc] on citrated pooled rat plasma?
Result: 22.5

Task: What measured aPTT mean clotting time is associated with `NC[C@H]1O[C@H](O[C@H]2[C@H](OS(=O)(=O)O)[C@@H](OS(=O)(=O)O)[C@@H](O[C@H]3[C@H](OS(=O)(=O)O)[C@@H](OS(=O)(=O)O)[C@@H](O[C@H]4[C@H](OS(=O)(=O)O)[C@@H](OS(=O)(=O)O)[C@@H]5OC[C@H]4O5)O[C@@H]3COS(=O)(=O)O)O[C@@H]2COS(=O)(=O)O)[C@H](OS(=O)(=O)O)[C@@H](OS(=O)(=O)O)[C@@H]1OS(=O)(=O)O` on citrated pooled rat plasma?
Result: 28.5
